biological target: human recombinant 6His-Nterm SHP2 full-length (Thr2-Arg593) (Homo sapiens); construct: 6His-Nterm SHP2 full-length (Thr2-Arg593, R&D system); 6His (N); purchased R&D system; experiment: SHP2 Phosphatase Assay (DiFMUP fluorescence); type: biochemical; details: SHP2 0.2 nM pre-incubated with 100 nM bi-phosphorylated activating peptide; compound 1000-0.05 nM, 30 min pre-incubation; DiFMUP 20 µM, 45 min, room temperature; 10-concentration dose-response
Sequence (Q06124 2-593): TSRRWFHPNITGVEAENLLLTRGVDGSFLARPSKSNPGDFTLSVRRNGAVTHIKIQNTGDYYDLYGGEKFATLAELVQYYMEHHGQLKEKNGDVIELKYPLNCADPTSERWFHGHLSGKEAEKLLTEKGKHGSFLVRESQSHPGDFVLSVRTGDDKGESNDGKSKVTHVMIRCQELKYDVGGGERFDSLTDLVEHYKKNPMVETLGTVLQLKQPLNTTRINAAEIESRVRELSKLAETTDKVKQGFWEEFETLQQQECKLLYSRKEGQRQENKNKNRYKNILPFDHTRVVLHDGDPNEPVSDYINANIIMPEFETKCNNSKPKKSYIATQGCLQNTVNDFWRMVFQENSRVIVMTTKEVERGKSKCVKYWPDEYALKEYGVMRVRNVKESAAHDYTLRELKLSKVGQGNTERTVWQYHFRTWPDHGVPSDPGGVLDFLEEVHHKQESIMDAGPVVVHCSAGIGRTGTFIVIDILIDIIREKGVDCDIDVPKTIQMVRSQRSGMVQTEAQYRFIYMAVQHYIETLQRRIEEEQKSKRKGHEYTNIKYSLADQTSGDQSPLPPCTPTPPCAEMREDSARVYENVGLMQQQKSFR
Where a name gives a salt, the structure may show the parent alone.
Criterion: IC50 strictly under 0.01 µM. Met: Criterion met. Not met: Criterion not met.

INSERT INTO assay_data (compound, label_value) VALUES
  ('Cc1nc(N2CCC3(CC2)Oc2ncccc2[C@H]3N)c2ccnn2c1-c1cccc(F)c1C(F)(F)F', 'Criterion not met'),
  ('Cc1nc(N2CCC3(CC2)Cc2ncccc2[C@H]3N)c2ccnn2c1-c1cccn(C)c1=O', 'Criterion not met'),
  ('COc1nc2c(s1)[C@@H](N)C1(CCN(c3nc(C)c(-c4ccnc(C)c4Cl)n4nccc34)CC1)C2', 'Criterion met'),
  ('Cc1nc(N2CCC3(CC2)Cc2ncccc2[C@H]3N)c2ccnn2c1-c1ccnc(N2CCOCC2)c1F', 'Criterion not met'),
  ('COc1ccc2c(n1)[C@@H](N)C1(CCN(c3nc(C)c(-c4cccc(F)c4F)n4nccc34)CC1)C2', 'Criterion not met');

Asked: Given the entry Cc1nc(N2CCC3(CC2)Cc2ncsc2[C@H]3N)c2ccnn2c1-c1ccccc1 [Compound 74, hydrochloride] , would its reported IC50 be below 0.01 µM?
Given back: Criterion met

Asked: Given the entry "Cc1nc(N2CCC3(CC2)Oc2ncccc2[C@H]3N)c2ccnn2c1-c1cccc(Cl)c1Cl" , would its reported IC50 be below 0.01 µM?
Given back: Criterion not met

Asked: Given the entry "Cc1nc(N2CCC3(CC2)Cc2ncccc2[C@H]3N)c2ccnn2c1-c1ccnc(C(F)(F)F)c1F" , would its reported IC50 be below 0.01 µM?
Given back: Criterion not met

Asked: Given the entry "Cc1nccc(-c2c(C)nc(N3CCC4(CC3)Oc3ccccc3[C@H]4N)c3ccnn23)c1Cl" , would its reported IC50 be below 0.01 µM?
Given back: Criterion not met

Asked: Given the entry Cc1nccc(-c2c(C)nc(N3CCC4(CC3)Cc3ccc(F)cc3[C@H]4N)c3ccnn23)c1Cl [Compound 91, hydrochloride] , would its reported IC50 be below 0.01 µM?
Given back: Criterion not met

Asked: Given the entry "COc1ccc(F)c(-c2c(C)nc(N3CCC4(CC3)Cc3ncccc3[C@H]4N)c3ccnn23)c1" , would its reported IC50 be below 0.01 µM?
Given back: Criterion not met

Asked: Given the entry "Cc1nc(N2CCC3(CC2)Cc2ncccc2[C@H]3N)c2ccnn2c1-c1cccc(F)c1Cl" , would its reported IC50 be below 0.01 µM?
Given back: Criterion met

====

Here the recorded pIC50 is given for each entry.
biological target: human recombinant 6His-Nterm SHP2 full-length (Thr2-Arg593) (Homo sapiens); construct: 6His-Nterm SHP2 full-length (Thr2-Arg593, R&D system); 6His (N); assay: SHP2 Phosphatase Assay (DiFMUP fluorescence); details: SHP2 0.2 nM pre-incubated with 100 nM bi-phosphorylated activating peptide; compound 1000-0.05 nM, 30 min pre-incubation; DiFMUP 20 µM, 45 min, room temperature; 10-concentration dose-response
Structures can show the parent of a compound that is named as a salt.
In textbook form, pIC50 equals minus log to base ten of the concentration in mol/L.

Solved cases (2 shown):
INSERT INTO results (compound, measured) VALUES
  ('N[C@@H]1c2cccnc2CC12CCN(c1ncc(-c3cnn4ccccc34)n3nccc13)CC2 [Compound 90, hydrochloride]', 7.89),
  ('Cc1nc(N2CCC3(CC2)Cc2ncccc2[C@H]3N)c2ccnn2c1-c1ccnc(C2CC2)c1Cl [Compound 40]', 8.00);

For the next question, use this compound.
Asked: Look up pIC50 of Cc1ccc2c(n1)CC1(CCN(c3nc(C)c(-c4ccccc4)n4nccc34)CC1)[C@@H]2N [Compound 107, hydrochloride] and report it.
Given back: 7.92
